study-target: NLRP3 (Homo sapiens, UniProt Q96P20)
Sequence (Q96P20 whole entry): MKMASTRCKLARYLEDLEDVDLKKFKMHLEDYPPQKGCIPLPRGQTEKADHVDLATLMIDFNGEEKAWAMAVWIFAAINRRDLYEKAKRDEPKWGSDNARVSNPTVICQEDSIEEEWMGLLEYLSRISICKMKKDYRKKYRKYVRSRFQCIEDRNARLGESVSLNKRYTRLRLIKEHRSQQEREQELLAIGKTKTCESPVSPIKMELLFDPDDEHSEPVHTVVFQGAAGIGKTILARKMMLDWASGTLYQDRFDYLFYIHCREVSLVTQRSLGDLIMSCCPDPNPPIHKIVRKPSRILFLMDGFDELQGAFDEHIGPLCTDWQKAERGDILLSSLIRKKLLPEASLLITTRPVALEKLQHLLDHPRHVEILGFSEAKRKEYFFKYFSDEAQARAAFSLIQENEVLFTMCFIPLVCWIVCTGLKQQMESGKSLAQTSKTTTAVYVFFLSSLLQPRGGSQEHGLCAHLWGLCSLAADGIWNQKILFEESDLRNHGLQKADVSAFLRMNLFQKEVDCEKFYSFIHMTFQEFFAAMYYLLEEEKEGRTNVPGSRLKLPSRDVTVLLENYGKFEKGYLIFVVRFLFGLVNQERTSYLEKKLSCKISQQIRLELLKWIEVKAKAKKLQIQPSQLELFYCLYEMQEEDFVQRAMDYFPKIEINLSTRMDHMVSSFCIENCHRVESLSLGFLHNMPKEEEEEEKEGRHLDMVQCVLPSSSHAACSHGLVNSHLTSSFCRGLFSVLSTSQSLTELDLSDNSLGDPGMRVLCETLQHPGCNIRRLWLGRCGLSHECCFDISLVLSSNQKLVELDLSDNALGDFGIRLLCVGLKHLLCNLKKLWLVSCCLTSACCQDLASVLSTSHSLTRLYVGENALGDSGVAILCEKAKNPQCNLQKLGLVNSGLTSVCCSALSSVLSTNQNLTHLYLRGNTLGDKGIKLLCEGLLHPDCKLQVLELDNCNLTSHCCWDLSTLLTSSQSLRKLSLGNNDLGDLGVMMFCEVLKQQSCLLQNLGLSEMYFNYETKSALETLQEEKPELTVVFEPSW
protocol-description: THP-1 cells pyroptosis assay
Type: cell-based
Parameters: Seed THP-1 cells (25,000 cells/well) containing 1.0 μg/ml LPS; host or cells: THP-1
setup-conditions: LPS 1.0 μg/ml, nigericin 5 μM, resazurin readout, 10 μM top dose (Example 2: top dose of 30 μM)
pIC50: −log10 of the molar value.
Exercise: for every item that follows, state its recorded pIC50.

Look up and state reported pIC50 for CC(C)c1cc(F)cc(C(C)C)c1Nc1nc(S(=O)(=O)N2CCC(CN(C)C)C2)n[nH]1 (stereo not shown)
≥ 6.30

Look up and state reported pIC50 for `CN1CCN(CCNS(=O)(=O)c2nnc(Nc3c4c(cc5c3CCC5)CCC4)[nH]2)CC1`
≥ 5.30

Look up and state reported pIC50 for `O=S(=O)(CCCN1CCCC1)c1nnc(Nc2c3c(cc4c2CCC4)CCC3)[nH]1`
≥ 6.30

Look up and state reported pIC50 for CN1CCCC(CNS(=O)(=O)c2nnc(Nc3c4c(cc5c3CCC5)CCC4)[nH]2)C1 (stereo not shown)
≥ 6.00

Look up and state reported pIC50 for `COc1cccc(S(=O)(=O)c2nnc(Nc3c4c(cc5c3CCC5)CCC4)[nH]2)c1`
≥ 5.30

Look up and state reported pIC50 for `COc1cc(-c2cc(F)cc(C3CC3)c2Nc2nnc(S(=O)(=O)N3CCC(N(C)C)CC3)[nH]2)ccn1`
≥ 6.30

Look up and state reported pIC50 for CC(C)(O)C1CCCN(S(=O)(=O)c2nnc(Nc3c4c(cc5c3CCC5)CCC4)[nH]2)C1 (stereo not shown)
≥ 5.30

Look up and state reported pIC50 for `CN1CCCN(S(=O)(=O)c2nnc(Nc3c4c(cc5c3CCC5)CCC4)[nH]2)CC1`
≥ 5.00

Look up and state reported pIC50 for `CN1CCC(Oc2cc(-c3ccc4c(c3Nc3nnc(S(=O)(=O)N5CCC(N(C)C)CC5)[nH]3)CCC4)ccn2)CC1`
≥ 5.30

Look up and state reported pIC50 for `COc1cc(-c2cc(F)cc(C(C)C)c2Cc2nnc(S(=O)(=O)c3ccccc3)[nH]2)ccn1`
≥ 5.00

Look up and state reported pIC50 for `CN1CCC12CCN(S(=O)(=O)c1nnc(Nc3c(-c4ccnc(OC(F)F)c4)ccc4c3CCC4)[nH]1)CC2`
≥ 6.30

Look up and state reported pIC50 for O=S(=O)(c1nnc(Nc2c3c(cc4c2CCC4)CCC3)[nH]1)C1CCCC(N2CCCC2)C1 (stereo not shown)
≥ 5.00

Look up and state reported pIC50 for `NC(=O)c1ccccc1S(=O)(=O)c1n[nH]c(Nc2c3c(cc4c2CCC4)CCC3)n1`
≥ 5.30

Look up and state reported pIC50 for O=S(=O)(CC1CNCCO1)c1nnc(Nc2c3c(cc4c2CCC4)CCC3)[nH]1 (stereo not shown)
≥ 5.00

Look up and state reported pIC50 for `O=S(=O)(c1cnn(C2CC2)c1)c1nnc(Nc2c3c(cc4c2CCC4)CCC3)[nH]1`
≥ 5.30

Look up and state reported pIC50 for `CN(C)C1CCN(S(=O)(=O)c2nnc(Nc3c4c(cc5c3CCC5)CCC4)[nH]2)CC1`
≥ 6.30

Look up and state reported pIC50 for `O=S(=O)(Cc1ccncc1)c1nnc(Nc2c3c(cc4c2CCC4)CCC3)[nH]1`
≥ 5.00

Look up and state reported pIC50 for `CCN1CCC2(C1)CN(S(=O)(=O)c1nnc(Nc3c4c(cc5c3CCC5)CCC4)[nH]1)C2`
≥ 6.30

Look up and state reported pIC50 for `COc1cc(-c2c(C)cccc2Nc2nnc(S(=O)(=O)N3CCC(N(C)C)CC3)[nH]2)ccn1`
≥ 5.00

Look up and state reported pIC50 for `CN1CCC(Oc2cc(-c3ccc4c(c3Nc3nnc(S(C)(=O)=O)[nH]3)CCC4)ccn2)CC1`
≥ 5.00

Look up and state reported pIC50 for `O=S(=O)(c1nnc(Nc2c3c(cc4c2CCC4)CCC3)[nH]1)N1CCn2cncc2C1`
≥ 5.00

Look up and state reported pIC50 for `O=S(=O)(c1nnc(Nc2c3c(cc4c2CCC4)CCC3)[nH]1)N1CCC2(CCCN2CC(F)(F)F)CC1`
≥ 5.00

Look up and state reported pIC50 for `CC(=O)NCCN(C)S(=O)(=O)c1nnc(Nc2c3c(cc4c2CCC4)CCC3)[nH]1`
≥ 5.00

Look up and state reported pIC50 for `CC(C)n1cc(S(=O)(=O)c2nnc(Nc3c4c(cc5c3CCC5)CCC4)[nH]2)cn1`
≥ 5.30

Look up and state reported pIC50 for `CCN(CC)CCCS(=O)(=O)c1nnc(Nc2c3c(cc4c2CCC4)CCC3)[nH]1`
≥ 6.30

Look up and state reported pIC50 for `CCN(CC)CCCS(=O)(=O)c1nnc(Nc2c(-c3ccnc(OC)c3)cc(F)cc2C(C)C)[nH]1`
≥ 6.30

Look up and state reported pIC50 for `[2H]C([2H])([2H])Oc1cc(-c2ccc3c(c2Nc2nnc(S(=O)(=O)N4CC[C@H](C(C)(C)O)C4)[nH]2)CCO3)ccn1`
≥ 6.30

Look up and state reported pIC50 for `CC(C)c1cc(F)cc(C(C)C)c1Nc1nnc(S(=O)(=O)N2CCC(N(C)C)CC2)[nH]1`
≥ 6.00

Look up and state reported pIC50 for `COc1ccccc1S(=O)(=O)c1nnc(Nc2c3c(cc4c2CCC4)CCC3)[nH]1`
≥ 6.00

Look up and state reported pIC50 for `COc1ccc(S(=O)(=O)c2nnc(Nc3c4c(cc5c3CCC5)CCC4)[nH]2)cc1`
≥ 5.30

Look up and state reported pIC50 for `CNC1CCN(S(=O)(=O)c2nnc(Nc3c4c(cc5c3CCC5)CCC4)[nH]2)CC1`
≥ 6.00
